# Assayed target: REFACTO® (recombinant factor VIII-like polypeptide consisting of amino acids 1-743 and 1638 through 2332 of human factor VIII) (human) (UniProt P00451)
# Sequence (P00451 20-762, chain 1 of 2): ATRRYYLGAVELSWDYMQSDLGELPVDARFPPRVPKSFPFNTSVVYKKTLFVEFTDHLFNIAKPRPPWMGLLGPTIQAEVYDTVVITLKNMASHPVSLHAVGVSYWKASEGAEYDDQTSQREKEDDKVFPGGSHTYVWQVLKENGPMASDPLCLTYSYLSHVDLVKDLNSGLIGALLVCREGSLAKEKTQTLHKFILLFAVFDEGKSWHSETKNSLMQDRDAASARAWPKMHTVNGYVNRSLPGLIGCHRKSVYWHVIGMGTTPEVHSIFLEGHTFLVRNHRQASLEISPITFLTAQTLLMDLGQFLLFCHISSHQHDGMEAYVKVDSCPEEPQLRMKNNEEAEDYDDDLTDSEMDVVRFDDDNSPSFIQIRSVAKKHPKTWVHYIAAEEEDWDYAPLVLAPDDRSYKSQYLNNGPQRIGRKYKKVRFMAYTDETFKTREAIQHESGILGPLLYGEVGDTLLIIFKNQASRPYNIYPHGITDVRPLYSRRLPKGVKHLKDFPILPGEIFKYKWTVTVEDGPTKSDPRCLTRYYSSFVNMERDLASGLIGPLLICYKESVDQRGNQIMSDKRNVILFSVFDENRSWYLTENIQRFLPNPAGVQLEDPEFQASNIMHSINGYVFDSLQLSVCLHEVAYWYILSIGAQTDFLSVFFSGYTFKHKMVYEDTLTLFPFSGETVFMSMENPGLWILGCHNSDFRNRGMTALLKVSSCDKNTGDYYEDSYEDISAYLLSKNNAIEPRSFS
# Sequence (P00451 1657-2351, chain 2 of 2): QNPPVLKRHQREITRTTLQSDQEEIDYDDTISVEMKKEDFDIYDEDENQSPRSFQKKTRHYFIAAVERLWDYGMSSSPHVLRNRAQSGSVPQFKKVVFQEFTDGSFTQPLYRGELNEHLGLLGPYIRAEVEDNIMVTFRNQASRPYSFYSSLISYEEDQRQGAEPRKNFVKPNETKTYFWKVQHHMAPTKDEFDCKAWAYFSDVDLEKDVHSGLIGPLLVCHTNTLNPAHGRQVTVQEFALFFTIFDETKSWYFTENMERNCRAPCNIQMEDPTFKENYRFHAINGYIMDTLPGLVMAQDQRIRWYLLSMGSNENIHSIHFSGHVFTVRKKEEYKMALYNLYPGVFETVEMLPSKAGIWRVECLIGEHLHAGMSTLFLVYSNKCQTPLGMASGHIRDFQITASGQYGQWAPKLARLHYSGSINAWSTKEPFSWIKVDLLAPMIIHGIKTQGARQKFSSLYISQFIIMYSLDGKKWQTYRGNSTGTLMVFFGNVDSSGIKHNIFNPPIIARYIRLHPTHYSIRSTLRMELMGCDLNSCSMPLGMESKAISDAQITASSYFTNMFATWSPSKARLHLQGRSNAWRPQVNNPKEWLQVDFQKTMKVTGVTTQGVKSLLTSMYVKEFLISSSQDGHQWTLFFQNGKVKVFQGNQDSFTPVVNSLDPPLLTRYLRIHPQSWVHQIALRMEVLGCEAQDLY
# Protocol notes: phage ELISA on the factor VIII target (REFACTO), anti-M13-HRP
Classify by measured ELISA signal: label 1 if it is equal to or exceeds 0.7 OD630, label 0 if it is smaller.

Solved entries:
HPCGAWLRPCYN [TN8 phage isolate 08 (SEQ ID NO: 20)]; label 1
HLCGAWFRPCDA [TN8 phage isolate 02 (E02-TN8, SEQ ID NO: 16)]; label 0
RLCSWVSPCSA [TN7 phage isolate C5/G10]; label 0
FCWVFNFSHCS [TN9 phage isolate 03 (SEQ ID NO: 26)]; label 1
HACGSWFRPCHA [TN8 phage isolate 07 (SEQ ID NO: 15)]; label 0

(Q) ELISA signal >= 0.7 OD630 for RGCGSWLRPCLD [TN8 phage isolate 05 (SEQ ID NO: 11)] ?
(A) label 0

(Q) Is the recorded value of ELISA signal equal to or greater than 0.7 OD630 for this binder? HPCGSWLHPCAA [TN8 phage isolate 04 (SEQ ID NO: 12)]
(A) label 0
